meta.source: PubChem BioAssay

Here the recorded z-score is given for each entry.
# PROCEDURE_TEXT: blood-stage malaria parasite viability loss – strain 3D7, DAPI fluorescence, 100 nL, primary screen (AID 1184);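 further: parasites grown inside human red blood cells in medium with human serum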
# PROTOCOL_CONDITIONS: P. falciparum 3D7 growth, 3 d, higher = more signal
Respond numerically, and do not add a unit to the figure.

Recorded results for 2 compounds are shown here.
{"COMPOUND": "C=CCC(OC(C)=O)[C@@H]1[C@@H](N(Cc2cc3ccccc3o2)C(=O)Cc2ccc(OC)cc2)c2cc(OCCCO)ccc2N1C(=O)c1ccc(-c2ccccc2)cc1 (some centres not stated)", "PARAMETER_MEASURED": "z-score", "RESULT": -2.84}
{"COMPOUND": "COc1ccc([Si](C)(C)[C@@H]2[C@@H](CCO)O[C@]3(C(=O)N(Cc4ccccc4)c4ccc(N5CCCCC5=O)cc43)[C@H]2C)cc1", "PARAMETER_MEASURED": "z-score", "RESULT": -2.89}

Next, consider the following compound.
Form: compound = COc1ccc([Si](C)(C)[C@H]2[C@H](CC(=O)N3CCC[C@H]3CO)O[C@@]3(C(=O)N(Cc4ccc(N5C(=O)c6cccc7cccc5c67)cc4)c4ccccc43)[C@@H]2C)cc1 ; z-score = -1.95
